The values you see were collected from ChEMBL document CHEMBL3853295.

Assay: Cytotoxicity against human SH-SY5Y cells after 72 hrs by MTT assay
Assay type: functional, cell-based
pIC50: −log10 of the molar value.
recorded metric: pIC50

smiles entry: N#Cc1cnn2c(Nc3ccc(N(CCCl)CCCl)cc3)cc(CN3CCC(c4ccccc4)CC3)nc12
recorded metric: pIC50
qual: <
quantitative result: 4.00
--
smiles entry: N#Cc1cnn2c(Nc3cccc(N(CCCl)CCCl)c3)cc(CN3CCC(c4ccccc4)CC3)nc12
recorded metric: pIC50
qual: <
quantitative result: 4.00
--
smiles entry: N#Cc1cnn2c(Nc3cc(F)cc(F)c3)cc(CN(CCCl)CCCl)nc12
recorded metric: pIC50
qual: <
quantitative result: 4.00
--
smiles entry: CCOC(=O)C1CCN(Cc2cc(Nc3ccc(N(CCCl)CCCl)cc3)n3ncc(C#N)c3n2)CC1
recorded metric: pIC50
qual: =
quantitative result: 4.13
--
smiles entry: N#Cc1cnn2c(Nc3cccc(Br)c3)cc(CN(CCCl)CCCl)nc12
recorded metric: pIC50
qual: <
quantitative result: 4.00
--
smiles entry: N#Cc1cnn2c(Nc3cccc(N(CCCl)CCCl)c3)cc(CN3CCCC3)nc12
recorded metric: pIC50
qual: =
quantitative result: 4.80
--
smiles entry: N#Cc1cnn2c(Nc3ccc(N(CCCl)CCCl)cc3)cc(CN3CCC(O)CC3)nc12
recorded metric: pIC50
qual: =
quantitative result: 4.86
--
smiles entry: N#Cc1cnn2c(Nc3ccc(F)cc3)cc(CN(CCCl)CCCl)nc12
recorded metric: pIC50
qual: <
quantitative result: 4.00
--
smiles entry: CCOC(=O)C1CCN(Cc2cc(Nc3cccc(N(CCCl)CCCl)c3)n3ncc(C#N)c3n2)CC1
recorded metric: pIC50
qual: <
quantitative result: 4.00
--
smiles entry: CCN1CCN(Cc2cc(Nc3ccc(N(CCCl)CCCl)cc3)n3ncc(C#N)c3n2)CC1
recorded metric: pIC50
qual: =
quantitative result: 5.08
--
smiles entry: CN1CCN(Cc2cc(Nc3ccc(N(CCCl)CCCl)cc3)n3ncc(C#N)c3n2)CC1
recorded metric: pIC50
qual: =
quantitative result: 5.13
--
smiles entry: N#Cc1cnn2c(Nc3ccccc3Cl)cc(CN(CCCl)CCCl)nc12
recorded metric: pIC50
qual: <
quantitative result: 4.00
--
smiles entry: CN(C)C1CCN(Cc2cc(Nc3ccc(N(CCCl)CCCl)cc3)n3ncc(C#N)c3n2)CC1
recorded metric: pIC50
qual: =
quantitative result: 5.10
--
smiles entry: N[C@@H](Cc1ccc(N(CCCl)CCCl)cc1)C(=O)O
recorded metric: pIC50
qual: <
quantitative result: 4.00
